Assay: Probe fluorescence ratio response to linolenic acid relative to ADIFAB2
Format: binding
Settings: response relative to ADIFAB2
Excerpt: In an alternate preferred embodiment, the protein is rI-FABP that has Ala substituted for Leu at position 72 (rI-FABP-L72A) with the resulting probe named ADIFAB2. […] ADIFAB2 also has an altered spectral response, making it especially useful for measurements of FFAu in blood samples (Apple et al, Clinical Proteomics, (2004) 1:41-44, U.S. patent application Ser. No. 10/670,958). […] The baseline value for this ratio, measured in the absence of analyte, is designated R0. […]
Collected DR/DR LNA values appear next to each entry.

MOLECULE	DR/DR LNA
14L 18L 31S 73W 117V 72A (protein, listed as Rattus norvegicus, PEPTIDE (1)...(131) wild-type rat intestinal fatty acid binding protein) AFDGTWKVDRNENLEKFLEKMGINVVKRKLSAHDNLKLTITQEGNKFTVKESSNFRNIDVVFELGVDFAYSAWDGTELTGTWTMEGNKLVGKFKRVDNGKELIAVREISGNELIQTVTYEGVEAKRIFKKE	1.631
104L1, 72A (protein, listed as Rattus norvegicus, PEPTIDE (1)...(131) wild-type rat intestinal fatty acid binding protein) AFDGTWKVDRNENYEKFMEKMGINVVKRKLGAHDNLKLTITQEGNKFTVKESSNFRNIDVVFELGVDFAYSAADGTELTGTWTMEGNKLVGKFKRVDNGKELILVREISGNELIQTYTYEGVEAKRIFKKE	0.42
36Y, 72A (protein, listed as Rattus norvegicus, PEPTIDE (1)...(131) wild-type rat intestinal fatty acid binding protein) AFDGTWKVDRNENYEKFMEKMGINVVKRKLGAHDNYKLTITQEGNKFTVKESSNFRNIDVVFELGVDFAYSAADGTELTGTWTMEGNKLVGKFKRVDNGKELIAVREISGNELIQTYTYEGVEAKRIFKKE	0.68
104Y, 72A (protein, listed as Rattus norvegicus, PEPTIDE (1)...(131) wild-type rat intestinal fatty acid binding protein) AFDGTWKVDRNENYEKFMEKMGINVVKRKLGAHDNLKLTITQEGNKFTVKESSNFRNIDVVFELGVDFAYSAADGTELTGTWTMEGNKLVGKFKRVDNGKELIYVREISGNELIQTYTYEGVEAKRIFKKE	0.278
18I 31L 73G 72A (protein, listed as Rattus norvegicus, PEPTIDE (1)...(131) wild-type rat intestinal fatty acid binding protein) AFDGTWKVDRNENYEKFIEKMGINVVKRKLLAHDNLKLTITQEGNKFTVKESSNFRNIDVVFELGVDFAYSAGDGTELTGTWTMEGNKLVGKFKRVDNGKELIAVREISGNELIQTYTYEGVEAKRIFKKE	1.525
